- Experimental context: 298.15 K; 101.33 kPa; Liquid
± gives the expanded uncertainty stated by the source.
Measured metric: speed of sound
Phrase the answer as number then unit, nothing more needed.

Completed entries (count: 4):
Molecule	speed of sound
OCCCCO [1,4-butanediol]	1605.6 ± 3.4 m/s
CCC(C)O (stereo not given) [butan-2-ol]	1212.6 ± 2.7 m/s
CCCCO [butan-1-ol]	1242.6 ± 2.7 m/s
CC(O)CCO (stereo not given) [1,3-butanediol]	1523.4 ± 3.2 m/s

With those in mind, consider the next molecule.
Ask | // speed of sound lookup, key: NC=O [formamide]
Reply | 1601 ± 3.3 m/s

###

- Experimental context: 293.15 K; 101.33 kPa; Liquid
Measured metric: log10 of viscosity (log10 of the value in mPa·s)
Scale: decimal log of viscosity, viscosity in mPa·s.

Ask | // returns reported log10 of viscosity for input CC(O)CCO (stereo not given)
Reply | 2.12

Ask | What measured log10 of viscosity goes with CCC(C)O (stereo not given) ?
Reply | 0.62

Ask | # get_value(readout='log10 of viscosity', item= "CCCCO" )
Reply | 0.47

Ask | Look at this compound and give its reported log10 of viscosity. NC=O [formamide]
Reply | 0.56

Ask | Entry "OCCCCO" has what log10 of viscosity?
Reply | 1.99

###

- Experimental context: 318.15 K; 101.33 kPa; Liquid
Measured metric: viscosity (mPa·s)
Give your result in mPa·s as a bare value.

Some compounds with recorded viscosity:
Compound	viscosity [mPa·s]
CCCCO	1.571
OCCCCO	29.05

Ask | Fill in: viscosity of CCC(C)O (stereo not given) is ___
Reply | 1.524

Ask | Could you tell me which viscosity is on file for CC(O)CCO (stereo not given) ?
Reply | 30.51

Ask | Name the reported viscosity value associated with the compound NC=O [formamide]
Reply | 2.219

###

- Experimental context: 313.15 K; 101.33 kPa; Liquid
Measured metric: speed of sound (m/s)
Reply with just the number (in m/s).

Molecule	Measured metric	Meas value
CCCCO	speed of sound	1189.2
CCC(C)O (stereo not given)	speed of sound	1155.9

Ask | Request the reported speed of sound associated with CC(O)CCO (stereo not given)
Reply | 1480.8

Ask | Query (molecule): "OCCCCO" ; field requested: speed of sound
Reply | 1579.8

Ask | Any idea what its speed of sound is? The molecule is NC=O [formamide]
Reply | 1565.1

###

- Experimental context: 318.15 K; 101.33 kPa; Liquid
Measured metric: speed of sound (m/s)
Provide the reading as a plain figure in m/s.

Look over these answered cases.
Compound	Unit text	Meas value
NC=O [formamide]	m/s	1553.1
CCC(C)O (stereo not given) [butan-2-ol]	m/s	1138.6
CC(O)CCO (stereo not given) [1,3-butanediol]	m/s	1470.3
OCCCCO [1,4-butanediol]	m/s	1570.2

Then there is this compound:
Ask | Returns the measured speed of sound for the input compound. Input: CCCCO [butan-1-ol]
Reply | 1170
